Parameter optomotor response to blue moving lines: see the listing below.
Tested on: Danio rerio larvae (5 dpf)
testName: optomotor response to blue moving lines, difference vs DMSO (percentage points (treated minus DMSO)); higher = more of the behaviour than the DMSO vehicle control
measurementContext: 10 µM; exposure time: 3 h pre-incubation + 3 h imaging
Counter-ions that a name gives are not always drawn.

Answered examples (3):
compound	studySystem	optomotor response to blue moving lines
COc1ccc(Cl)cc1C(=O)NCCc1ccc(S(=O)(=O)NC(=O)NC2CCCCC2)cc1 [Glibenclamide]	Danio rerio larvae (5 dpf)	1.29
C=C1[C@H](CO)[C@@H](O)C[C@@H]1n1cnc2c(=O)[nH]c(N)nc21	Danio rerio larvae (5 dpf)	11.4
Nc1nc(F)nc2c1ncn2[C@@H]1O[C@H](CO)[C@@H](O)[C@@H]1O	Danio rerio larvae (5 dpf)	-12

IN: Field request: optomotor response to blue moving lines | item: CC(C)COCC(CN(Cc1ccccc1)c1ccccc1)N1CCCC1 (stereo not given) [Bepridil hydrochloride]
OUT: 7.44

IN: How about COc1cc2ncnc(Nc3ccc(F)c(Cl)c3)c2cc1OCCCN1CCOCC1 ?
OUT: 5.63

IN: How about CN1CCC[C@@H]1CCO[C@](C)(c1ccccc1)c1ccc(Cl)cc1 [Clemastine fumarate] ?
OUT: 22.4

IN: How about CCCc1nc(C(C)(C)O)c(C(=O)O)n1Cc1ccc(-c2ccccc2-c2nnn[nH]2)cc1 ?
OUT: 3.07

IN: How about C=CC(=O)N1CCC[C@@H](n2nc(-c3ccc(Oc4ccccc4)cc3)c3c(N)ncnc32)C1 ?
OUT: 6.42

----------
Tested on: Danio rerio larvae (5 dpf)
testName: startle response to 20-s acoustic pulses, difference vs DMSO (percentage points (treated minus DMSO)); higher = more of the behaviour than the DMSO vehicle control
measurementContext: 10 µM; exposure time: 3 h pre-incubation + 3 h imaging
Structures can show the parent of a compound that is named as a salt.
Classify by measured startle response to 20-s acoustic pulses: TRUE if it is equal to or exceeds 4, FALSE if it is smaller.

// below: answered compounds
>>> print(df.to_string())
                                   compound  assignedlabel
0  CN(C)CCc1c[nH]c2ccc(C[C@H]3COC(=O)N3)cc12          FALSE
1  Nc1nc2[nH]cc(CCc3ccc(C(=O)N[C@@H](CCC(=O)O)C(=O)O)cc3)c2c(=O)[nH]1          FALSE
2  COc1ccccc1Oc1c(NS(=O)(=O)c2ccc(C(C)(C)C)cc2)nc(-c2ncccn2)nc1OCCO           TRUE
3  NS(=O)(=O)c1cc(C(=O)O)c(NCc2ccco2)cc1Cl [Furosemide]          FALSE
4  CC(=O)Oc1cc2c(s1)CCN(C(C(=O)C1CC1)c1ccccc1F)C2 (configuration not stated)          FALSE

With those in mind, consider the next compound.
IN: Tell me whether startle response to 20-s acoustic pulses is at least 4 here: N#C[C@@H]1C[C@@H]2C[C@@H]2N1C(=O)[C@@H](N)C12CC3CC(CC(O)(C3)C1)C2 [Saxagliptin hydrochloride]
OUT: TRUE

----------
Test system: Danio rerio larvae (5 dpf)
testName: startle response to 20-s acoustic pulses, difference vs DMSO (percentage points (treated minus DMSO)); higher = more of the behaviour than the DMSO vehicle control
measurementContext: 10 µM; exposure time: 3 h pre-incubation + 3 h imaging
Structures can show the parent of a compound that is named as a salt.
Parameter startle response to 20-s acoustic pulses: see the listing below.

compound	studySystem	startle response to 20-s acoustic pulses
CN(C)CCC[C@@]1(c2ccc(F)cc2)OCc2cc(C#N)ccc21 [Escitalopram oxalate]	Danio rerio larvae (5 dpf)	-6.28
C[C@H]1O[C@H](O[C@H]2[C@H](O)[C@@H](O)[C@@H](O[C@H]3[C@H](O)[C@@H](O)C(O)O[C@@H]3CO)O[C@@H]2CO)[C@H](O)[C@@H](O)[C@@H]1N[C@H]1C=C(CO)[C@@H](O)[C@H](O)[C@H]1O (stereo partly drawn)	Danio rerio larvae (5 dpf)	-6.81

With those in mind, consider the next compound.
IN: Field request: startle response to 20-s acoustic pulses | item: CCN(CC)CCNC(=O)c1c(C)[nH]c(/C=C2\C(=O)Nc3ccc(F)cc32)c1C [Sunitinib malate]
OUT: -2.32
